- tested system: Chaetomium thermophilum Nup188, full-length (Chaetomium thermophilum, UniProt G0SFH5 1-1858)
- Sequence (G0SFH5 whole entry): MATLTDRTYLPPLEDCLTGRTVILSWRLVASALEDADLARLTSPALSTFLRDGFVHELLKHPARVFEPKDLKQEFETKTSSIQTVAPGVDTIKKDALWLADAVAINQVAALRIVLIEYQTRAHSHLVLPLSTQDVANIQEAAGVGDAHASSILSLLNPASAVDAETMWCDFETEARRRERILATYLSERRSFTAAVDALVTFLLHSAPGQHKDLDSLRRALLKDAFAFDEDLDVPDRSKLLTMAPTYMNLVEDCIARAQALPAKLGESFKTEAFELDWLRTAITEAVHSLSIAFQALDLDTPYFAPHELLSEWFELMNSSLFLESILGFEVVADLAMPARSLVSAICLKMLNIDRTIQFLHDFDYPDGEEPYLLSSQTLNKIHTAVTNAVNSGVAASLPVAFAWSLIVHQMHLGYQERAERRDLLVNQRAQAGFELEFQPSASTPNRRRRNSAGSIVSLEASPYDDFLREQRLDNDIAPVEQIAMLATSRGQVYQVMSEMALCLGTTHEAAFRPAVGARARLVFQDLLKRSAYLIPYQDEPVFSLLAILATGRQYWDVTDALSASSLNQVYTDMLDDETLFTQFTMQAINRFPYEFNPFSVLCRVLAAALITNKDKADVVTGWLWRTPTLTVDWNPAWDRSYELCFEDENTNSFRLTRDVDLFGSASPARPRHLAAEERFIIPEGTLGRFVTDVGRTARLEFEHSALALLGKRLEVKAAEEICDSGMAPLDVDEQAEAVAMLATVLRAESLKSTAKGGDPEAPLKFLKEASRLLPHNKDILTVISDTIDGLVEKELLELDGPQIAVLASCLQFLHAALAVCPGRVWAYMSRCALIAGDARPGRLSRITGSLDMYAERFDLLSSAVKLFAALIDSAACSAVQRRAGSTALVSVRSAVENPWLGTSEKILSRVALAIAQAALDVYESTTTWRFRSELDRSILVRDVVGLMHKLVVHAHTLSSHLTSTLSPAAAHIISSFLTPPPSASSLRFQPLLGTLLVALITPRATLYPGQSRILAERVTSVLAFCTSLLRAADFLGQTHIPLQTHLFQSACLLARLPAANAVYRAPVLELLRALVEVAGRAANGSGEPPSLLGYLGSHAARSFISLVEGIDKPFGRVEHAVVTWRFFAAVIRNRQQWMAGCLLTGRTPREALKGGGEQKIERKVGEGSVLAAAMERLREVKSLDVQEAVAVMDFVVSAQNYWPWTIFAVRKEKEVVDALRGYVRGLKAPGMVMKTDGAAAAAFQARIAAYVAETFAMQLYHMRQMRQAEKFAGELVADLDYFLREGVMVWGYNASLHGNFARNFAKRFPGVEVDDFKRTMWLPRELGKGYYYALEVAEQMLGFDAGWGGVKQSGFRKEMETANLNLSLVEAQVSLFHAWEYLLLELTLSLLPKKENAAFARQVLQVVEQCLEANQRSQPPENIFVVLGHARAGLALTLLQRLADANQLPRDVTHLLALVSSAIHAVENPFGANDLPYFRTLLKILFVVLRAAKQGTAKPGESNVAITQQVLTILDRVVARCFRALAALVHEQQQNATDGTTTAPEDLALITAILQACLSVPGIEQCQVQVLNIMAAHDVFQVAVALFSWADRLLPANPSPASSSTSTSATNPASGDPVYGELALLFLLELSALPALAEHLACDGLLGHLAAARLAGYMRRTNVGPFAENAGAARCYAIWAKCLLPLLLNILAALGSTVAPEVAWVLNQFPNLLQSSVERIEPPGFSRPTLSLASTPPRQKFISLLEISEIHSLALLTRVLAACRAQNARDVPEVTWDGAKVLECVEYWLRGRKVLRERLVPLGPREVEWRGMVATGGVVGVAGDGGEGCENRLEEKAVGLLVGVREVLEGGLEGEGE
- assay method text: ITC
assay readout: Kd

binder: Nic96^187–301 (domain or fragment, Chaetomium thermophilum, UniProt G0S024 187-301, looked up) EPGKAHYFLAASGVDPGAAVRDLGALGLQAKTERTAASVGPAAGPSGVSTTGFGTGLGEVDVDTYLSNLQTKTTLSMIADGLERSARDFDAFLEENVTLEWEAQRKRIYQHFGIK
test value: ~90 nM

We now examine a further binder.
Reported Kd for Nic96^R2 (residues 240–301) (peptide, UniProt G0S024 240-301, looked up) GTGLGEVDVDTYLSNLQTKTTLSMIADGLERSARDFDAFLEENVTLEWEAQRKRIYQHFGIK : what is it?
~90 nM

// provenance: paper PMC9867570
